ASSAY NAME: soluble on expression in E. coli; label from the status in PepcDB or PDB records
VALUE KIND: soluble on expression in E. coli

1) MENKIQELTDKIYREGVEKGNEEAQRLIANAQEEAKKIIEDARKEADSIVAASRKSADELADNTKSELKLFSGQAVNALKSEIATMVTDKLITASVKDFAQDKDYLNAFIVALASKWSVDEPIVISTADAESLKKYFAAHAKALLDKGVTIEQVNGIKTLFTVSPADGSYKVNFGEEEFMNYFKAFLRPQLVEMLF :: not soluble
2) MPSYKLTYFNVRGYGEPARILFHLADVPFEDFRMTIGDGTWENLKAKTPFGQAPVLSVDGFEIPQSAAINRYLAKQFGYAGKTPEEQAWTDAIVDQYKDFMVSIKEVGKASAAGKSAEEVGKIIQSDLVPARDAFFVIINKILEKSKSGFLVGDGLTIADIVIVECITTLDKHQLFTASEQPKLVALREKVYAIPAIKKWVEIRPDTLN :: not soluble
3) NKNFSWNVNFNLTHFKNKVLELSPELNGQLIDGARIYREDESMYQLYLPKYVGVDSETGESLWALVTPDENGNTVTKSYSVASENRFASGDILPKVYGGFGTSVTAYGFDLSVSFAYQLGGRILDYTYQGLMDVAATGSALHKDMLKAWTPENKNTDVPRMNINDQYTNRLTDRFLTSSDYLSLQNITLGYTLPKSLTRKMQIDGVRVFFVADNVALLTARKGLDPRQGYVAADNVYSPIRTISGGISLNF :: not soluble
